These measurements were taken from patent US20100291034A1.

- ASSAY OVERVIEW: Clinical study: effect of ketoconazole or ibuprofen on the pharmacokinetics of Formula Ia
- Format: in vivo, human
- RECORDED CONDITIONS: median; plasma Formula Ia, single 400 mg dose PO, human subjects
RECORDED ENDPOINT: Tmax (h)

>>> reported("CC(C)(C)NC(=O)N[C@H](C(=O)N1CC2C([C@H]1C(=O)NC(CC1CCC1)C(=O)C(N)=O)C2(C)C)C(C)(C)C (stereo partly shown) [Formula Ia]")
1.75

====

- ASSAY OVERVIEW: Clinical study: effect of ketoconazole or ibuprofen on the pharmacokinetics of Formula Ia
- Format: in vivo, human
- RECORDED CONDITIONS: Mean (% CV); plasma Formula Ia, single 400 mg dose PO, human subjects
- Description: The study was conducted in an open-label, randomized, 3-period, 2-sequence crossover manner (FIG. 2). During Period 1, all 12 human subjects were administered a single 400 mg dose of Formula Ia. […] The proportion of human subjects with plasma concentrations above the in vitro IC50 and IC90 for the HCV replicon at each time point was determined. […]
RECORDED ENDPOINT: MRT (h)

>>> reported("CC(C)(C)NC(=O)N[C@H](C(=O)N1CC2C([C@H]1C(=O)NC(CC1CCC1)C(=O)C(N)=O)C2(C)C)C(C)(C)C (stereo partly shown) [Formula Ia]")
6.57

====

- ASSAY OVERVIEW: Clinical study: effect of ketoconazole or ibuprofen on the pharmacokinetics of Formula Ia
- Assay type: in vivo, human
- RECORDED CONDITIONS: Mean (% CV); plasma Formula Ia, single 400 mg dose PO, human subjects
RECORDED ENDPOINT: AUC(0-t)

>>> reported("CC(C)(C)NC(=O)N[C@H](C(=O)N1CC2C([C@H]1C(=O)NC(CC1CCC1)C(=O)C(N)=O)C2(C)C)C(C)(C)C (stereo partly shown)")
"2000 ng·h/mL"

====

- ASSAY OVERVIEW: Clinical study: effect of ketoconazole or ibuprofen on the pharmacokinetics of Formula Ia
- Assay type: in vivo, human
- RECORDED CONDITIONS: human, plasma, po, 400 mg, Mean (% CV); plasma Formula Ia, single 400 mg dose PO, human subjects; read-out: AUC(l)
- Protocol: The study was conducted in an open-label, randomized, 3-period, 2-sequence crossover manner (FIG. 2). During Period 1, all 12 human subjects were administered a single 400 mg dose of Formula Ia. […] The proportion of human subjects with plasma concentrations above the in vitro IC50 and IC90 for the HCV replicon at each time point was determined. […]
RECORDED ENDPOINT: AUC

>>> reported("CC(C)(C)NC(=O)N[C@H](C(=O)N1CC2C([C@H]1C(=O)NC(CC1CCC1)C(=O)C(N)=O)C2(C)C)C(C)(C)C (stereo partly shown)")
"2070 ng·h/mL"

====

- ASSAY OVERVIEW: Clinical study: effect of ketoconazole or ibuprofen on the pharmacokinetics of Formula Ia
- Assay type: in vivo, human
- RECORDED CONDITIONS: Mean (% CV); plasma Formula Ia, single 400 mg dose PO, fasted human subjects; alone or with ketoconazole 400 mg BID or ibuprofen 600 mg TID
RECORDED ENDPOINT: Cmax

>>> reported("CC(C)(C)NC(=O)N[C@H](C(=O)N1CC2C([C@H]1C(=O)NC(CC1CCC1)C(=O)C(N)=O)C2(C)C)C(C)(C)C (stereo partly shown)")
"0.571 µg/mL"
